System: Bifunctional dihydrofolate reductase-thymidylate synthase (Plasmodium falciparum K1)
Protocol text: Inhibitory activity against triple mutant dihydrofolate reductase (C59R S108N I164L DHFR), relative to trimethoprim
Observable: Relative activity
Write the value as a bare number.

## Task Item under review: COc1cc(Cc2cnc(N)nc2N)ccc1OCCCOc1ccccc1 . Reported Relative activity?
## Result 0.05

## Task Item under review: CCCCCCCOc1cc(Cc2cnc(N)nc2N)ccc1OC . Reported Relative activity?
## Result 0.05

## Task Item under review: Nc1ncc(Cc2ccc(OCCCOCCCOc3ccccc3)cc2)c(N)n1 . Reported Relative activity?
## Result 0.05

---

Each entry below lists one item and its recorded Relative activity value.
System: Bifunctional dihydrofolate reductase-thymidylate synthase (Plasmodium falciparum K1)
Protocol text: Inhibitory activity against triple mutant dihydrofolate reductase (C59R S108N I164L DHFR), relative to trimethoprim

Molecule: CCOc1cc(Cc2cnc(N)nc2N)ccc1OCCCOCCCOc1ccccc1
Observable: Relative activity
Assay value: 0.06
//
Molecule: CCOc1cc(Cc2cnc(N)nc2N)ccc1OCCCOc1ccccc1
Observable: Relative activity
Assay value: 0.03
//
Molecule: CCCOc1cc(Cc2cnc(N)nc2N)ccc1OC
Observable: Relative activity
Assay value: 0.03
//
Molecule: CCOc1ccc(Cc2cnc(N)nc2N)cc1OC
Observable: Relative activity
Assay value: 0.6

We now examine a further compound.
## Task Item under review: Nc1ncc(Cc2ccc(OCCCOc3ccccc3)cc2)c(N)n1 . Reported Relative activity?
## Result 0.08

---

System: Bifunctional dihydrofolate reductase-thymidylate synthase (Plasmodium falciparum K1) (UniProt P13922)
Sequence (P13922 whole entry, looked up): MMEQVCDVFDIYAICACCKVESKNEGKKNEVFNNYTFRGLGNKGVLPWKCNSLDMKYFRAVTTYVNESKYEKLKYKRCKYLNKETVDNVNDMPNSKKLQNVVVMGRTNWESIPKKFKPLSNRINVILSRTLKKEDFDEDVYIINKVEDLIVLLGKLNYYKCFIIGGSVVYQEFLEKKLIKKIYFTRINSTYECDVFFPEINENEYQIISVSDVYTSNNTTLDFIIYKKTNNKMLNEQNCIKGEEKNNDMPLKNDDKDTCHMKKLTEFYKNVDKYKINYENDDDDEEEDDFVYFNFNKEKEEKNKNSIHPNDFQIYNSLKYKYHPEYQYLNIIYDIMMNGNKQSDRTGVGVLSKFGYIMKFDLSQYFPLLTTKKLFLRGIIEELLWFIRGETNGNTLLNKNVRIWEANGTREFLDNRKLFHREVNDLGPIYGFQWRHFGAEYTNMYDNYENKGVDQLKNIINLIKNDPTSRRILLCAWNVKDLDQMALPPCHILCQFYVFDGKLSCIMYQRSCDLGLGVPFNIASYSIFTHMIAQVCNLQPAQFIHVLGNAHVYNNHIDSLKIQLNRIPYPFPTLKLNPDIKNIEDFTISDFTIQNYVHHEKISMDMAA
Protocol text: Inhibitory activity against quadruple mutant dihydrofolate reductase (N51I C59R S108N I164L DHFR), relative to trimethoprim
Each entry below lists one item and its recorded Relative activity value.
Write the value as a bare number.

Compound: COc1cc(Cc2cnc(N)nc2N)ccc1OCCCOc1ccccc1
Assay value: 0.09
--
Compound: COc1cc(Cc2cnc(N)nc2N)ccc1OCCCc1ccccc1
Assay value: 0.17
--
Compound: Nc1ncc(Cc2ccc(OCCCc3ccccc3)cc2)c(N)n1
Assay value: 0.12
--
Compound: COc1ccc(Cc2cnc(N)nc2N)cc1OC [DIAVERIDINE]
Assay value: 2.1
--
Compound: CCCCCCCOc1ccc(Cc2cnc(N)nc2N)cc1
Assay value: 0.2

## Task Item under review: CCc1nc(N)nc(N)c1Cc1ccc(OCc2ccccc2)c(OC)c1 . Reported Relative activity?
## Result 0.11

## Task Item under review: CCCCCOc1ccc(Cc2cnc(N)nc2N)cc1OCC . Reported Relative activity?
## Result 0.1

## Task Item under review: CCCCCOc1ccc(Cc2cnc(N)nc2N)cc1 . Reported Relative activity?
## Result 0.1

## Task Item under review: COc1cc(Cc2c(C)nc(N)nc2N)ccc1OCc1ccccc1 . Reported Relative activity?
## Result 0.01
